Data credit: PubChem BioAssay (NCI)

Tested on: BT-549 breast
Experiment: NCI tumour cell line growth inhibition, 48 h
Give measured GI50 for each item. Keep answers brief.

Some solved cases for reference:
compound=Cc1c2c(nn1C)CSCc1cc(n(C)n1)CSc1cc(c3ccccc3c1)OCCCc1c(C(=O)O)n(C)c3c-2c(Cl)ccc13 observed_value="2.52 µM"
compound=O=c1nc2oc3ccc4ccccc4c3cc-2s1 observed_value="4.35 µM"
compound=CN1CC[C@@H](c2c(O)cc(O)c3c(=O)cc(-c4ccccc4Cl)oc23)[C@@H]1CO observed_value="0.38 µM"
compound=O=C(Nc1cccc(NC(=O)Nc2cc(C(F)(F)F)ccc2Cl)c1)Nc1cc(C(F)(F)F)ccc1Cl observed_value="5.55 µM"
compound=C1CN(SSN2CCOCC2)CCO1 observed_value="30 µM"

Please give GI50, item by item, for the list that follows.
1. CCc1ccc(NC(=O)COC(=O)c2cc([N+](=O)[O-])ccc2Sc2nnnn2C)cc1
2. Cc1cc(N2CCCC2)nc(N(CCNc2ccnc3cc(Cl)ccc23)Cc2ccco2)n1
3. CCCOC(=O)N1CCN(/[N+]([O-])=N/Oc2ccc([N+](=O)[O-])cc2[N+](=O)[O-])CC1
4. CCCCN(CCCC)c1ccc(C(=N)c2ccc(N(CCCC)CCCC)cc2)cc1
5. Cn1cc(C2=C(c3cccc(OCC(O)CO)c3)C(=O)NC2=O)c2ccccc21 (configuration not stated)
6. COc1ccc2c(c1)C(=O)c1c-2c(N(C)C)nc2ccccc12
7. COc1cc(C(=O)NC2CCN(C)CC2)c(F)cc1Nc1ncc2c(n1)N(C1CCCC1)CC(F)(F)C(=O)N2C

OUTPUT:
["4.42 µM", "5.74 µM", "3.46 µM", "1.42 µM", "> 25 µM", "> 100 µM", "1.87 µM"]

---

Give measured TGI for each item. Keep answers brief.
Tested on: HOP-62 NSCLC
Assay: NCI tumour cell line growth inhibition, 48 h

molecule="COc1ccc(C(C#N)Cc2cc(OC)c(OC)c(OC)c2)cc1 (centres undefined)" observed_value="> 100 µM"
molecule=O=C(COc1ccc(/C=C2\Oc3ccccc3C2=O)cc1)Nc1nc2c(s1)CCCC2 observed_value="97.9 µM"
molecule=COc1ccc2c(c1)C(=O)c1c-2c(N(C)C)nc2ccccc12 observed_value="> 100 µM"
molecule=CC1(c2ccc[n+](Cc3ccccc3)c2)OCCO1 observed_value="> 100 µM"

Please give TGI, item by item, for the list that follows.
1. C[CH2][Sn]([CH2]C)([O]C(=O)C(OC(C)=O)c1ccccc1)[O]C(=O)C(OC(C)=O)c1ccccc1 (centres undefined)
2. CCOC(=O)NC(=O)c1cn(CCN2CCN(c3ncnc4nc[nH]c34)CC2)c(=O)[nH]c1=O
3. COc1ccc(C2N(NC(=O)c3ccncc3)C(=O)CS2(=O)=O)cc1F (centres undefined)
4. COC(=O)C(Cc1ccccc1)NP(=O)(O)OCC1OC(n2cc(F)c(=O)[nH]c2=O)CC1O (centres undefined)
5. CCOC(=O)NC(=O)c1cn(CCCCCCOC(=O)NCCCCCCNC(=O)OCCCCCCn2cc(C(=O)NC(=O)OCC)c(=O)[nH]c2=O)c(=O)[nH]c1=O
6. COc1ccc(C2SC(C)C(=O)N2NC(=O)C(O)c2ccccc2)cc1OC (centres undefined)
7. CC(C)(O)CC(=O)NCCn1ccc2ncnc(Nc3ccc(Oc4cccc(C(F)(F)F)c4)c(Cl)c3)c21

OUTPUT:
1: > 100 µM; 2: > 100 µM; 3: > 100 µM; 4: > 100 µM; 5: > 100 µM; 6: > 100 µM; 7: > 10 µM
